test: in vivo; details: male, mouse, iv; CD1 mice, whole blood, 1 mg/kg i.v.; read-out: AUClast after 1 mg/kg i.v. dose
Observation Type: AUC(0-t) (ng·h/mL)

Reference set (2 entries):
{"columns": ["Compound", "AUC(0-t) [ng·h/mL]"],
 "data": [
  ["CNC(=O)/C=C/C=C(\\C)[C@@H]1C/C=C/C=C/[C@H](O)[C@H](C)[C@@H](O)[C@@H](CCC(C)=O)C(=O)N[C@@H](C(C)C)C(=O)N[C@@H](Cc2cccc(OC)c2)C(=O)N2CCCC(N2)C(=O)O1 (stereo partly shown)", 1220],
  ["CC(=O)CC[C@H]1C(=O)N[C@@H](C(C)C)C(=O)N[C@@H](Cc2cc(O)cc(F)c2)C(=O)N2CCCC(N2)C(=O)O[C@H](/C(C)=C/C=C/C(=O)N2CCCCO2)C/C=C/C=C/[C@H](O)[C@H](C)[C@H]1O (stereo partly shown)", 45500]
]}

(a) CNC(=O)/C=C/C=C(\C)[C@@H]1C/C=C/C=C/[C@H](O)[C@H](C)[C@@H](O)[C@@H](CCC(C)=O)C(=O)N[C@@H](C(C)C)C(=O)N[C@@H](Cc2cccc(O)c2)C(=O)N2CCCC(N2)C(=O)O1 (stereo partly shown)
(b) CON(C)C(=O)/C=C/C=C(\C)[C@@H]1C/C=C/C=C/[C@H](O)[C@H](C)[C@@H](O)[C@@H](CCC(C)=O)C(=O)N[C@@H](C(C)C)C(=O)N[C@@H](Cc2cccc(O)c2)C(=O)N2CCCC(N2)C(=O)O1 (stereo partly shown)
Inquiry: Short answer wanted: higher AUC(0-t), a or b ? I would appreciate it if you answered with the label of your choice.
Reply text: b

###

test: in vivo; settings: male, mouse, po; CD1 mice, whole blood, 10 mg/kg p.o.; read-out: AUClast after 10 mg/kg p.o. dose
Observation Type: AUC(0-t) (ng·h/mL)

(1) C/C(=C\CO)[C@@H]1C/C=C/C=C/[C@@H]2OC3(C)CC[C@@H](C(=O)N[C@@H](C(C)C)C(=O)N[C@@H](Cc4cccc(O)c4)C(=O)N4CCCC(N4)C(=O)O1)[C@H](O3)[C@H]2C
(2) CCN(CC)C(=O)/C=C/C=C(\C)[C@@H]1C/C=C/C=C/[C@H](O)[C@H](C)[C@@H](O)[C@@H](CCC(C)=O)C(=O)N[C@@H](C(C)C)C(=O)N[C@@H](Cc2cccc(O)c2)C(=O)N2CCCC(N2)C(=O)O1 (some centres unmarked)
Inquiry: Short answer wanted: higher AUC(0-t), 1 or 2 ? I would appreciate it if you answered with the label of your choice.
Reply text: 2

###

assay: in vivo; details: male, mouse, po; CD1 mice, whole blood, 10 mg/kg p.o.; read-out: AUClast after 10 mg/kg p.o. dose
Observation Type: AUC(0-t) (ng·h/mL)

Reference set (2 entries):
{"columns": ["Compound", "Observation Type", "Assay Value"],
 "data": [
  ["CNC(=O)/C=C/C=C(\\C)[C@@H]1C/C=C/C=C/[C@H](O)[C@H](C)[C@@H](O)[C@@H](CCC(C)=O)C(=O)N[C@@H](C(C)C)C(=O)N[C@@H](Cc2cccc(OC)c2)C(=O)N2CCCC(N2)C(=O)O1 (some centres unmarked)", "AUC(0-t)", 4.76],
  ["CCCC(=O)/C=C/C=C(\\C)[C@@H]1C/C=C/C=C/[C@H](O)[C@H](C)[C@@H](O)[C@@H](CCC(C)=O)C(=O)N[C@@H](C(C)C)C(=O)N[C@@H](Cc2cccc(O)c2)C(=O)N2CCCC(N2)C(=O)O1 (some centres unmarked)", "AUC(0-t)", 111]
]}

(P) CCOC(=O)/C=C/C=C(\C)[C@@H]1C/C=C/C=C/[C@H](O)[C@H](C)[C@@H](O)[C@@H](CCC(C)=O)C(=O)N[C@@H](C(C)C)C(=O)N[C@@H](Cc2cccc(O)c2)C(=O)N2CCCC(N2)C(=O)O1 (some centres unmarked)
(Q) CNC(=O)/C=C/C=C(\C)[C@@H]1C/C=C/C=C/[C@H](O)[C@H](C)[C@@H](O)[C@@H](CCC(C)=O)C(=O)N[C@@H](C(C)C)C(=O)N[C@@H](Cc2cccc(O)c2)C(=O)N2CCCC(N2)C(=O)O1 (some centres unmarked)
Inquiry: Look at P and Q . Which one has the lower recorded AUC(0-t) number? I would appreciate it if you answered with the label of your choice.
Reply text: Q
(Q: 17.8 ng·h/mL, P: 3090 ng·h/mL)

(A) CON(C)C(=O)/C=C/C=C(\C)[C@@H]1C/C=C/C=C/[C@H](O)[C@H](C)[C@@H](O)[C@@H](CCC(C)=O)C(=O)N[C@@H](C(C)C)C(=O)N[C@@H](Cc2cccc(O)c2)C(=O)N2CCCC(N2)C(=O)O1 (some centres unmarked)
(B) CC(=O)CC[C@H]1C(=O)N[C@@H](C(C)C)C(=O)N[C@@H](Cc2cccc(O)c2)C(=O)N2CCCC(N2)C(=O)O[C@H](/C(C)=C/C=C/C(=O)N(CC(C)C)CC(C)C)C/C=C/C=C/[C@H](O)[C@H](C)[C@H]1O (some centres unmarked)
(C) CC(=O)CC[C@H]1C(=O)N[C@@H](C(C)C)C(=O)N[C@@H](Cc2cccc(O)c2)C(=O)N2CCCC(N2)C(=O)O[C@H](/C(C)=C/C=C/C(=O)N2CCOCC2)C/C=C/C=C/[C@H](O)[C@H](C)[C@H]1O (some centres unmarked)
Inquiry: Arrange items by their AUC(0-t) values in increasing order. Respond with the label ranking, as requested.
Reply text: B, A, C
